The measured values listed here are drawn from ChEMBL document CHEMBL2093137.

# Test system: Brugia malayi
# assay.remarks: WHO-TDR: Lymphatic Filariasis
# Assay type: functional
# Set-up: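 tested at 10 µM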
Entries and their % Inhibition
Write the value in % as a bare number.

Worked cases, answers included:
CS(=O)(=O)N1CCCCC1C(=O)Nc1nc2c(Cl)c(Cl)ccc2s1 (stereo not given) = 0
O=C(NCCNc1ccc(Nc2ccccn2)nn1)c1cccc(C(F)(F)F)c1 = 50
Cc1ccc(-n2ccnc2N2CCN(C(=O)c3ccccc3SC(F)F)CC2)cc1 = 0
CCn1nc(C(=O)Nc2nnc(CCSc3ccccc3)o2)cc1C = 0
Cc1ccc(C(=O)Nc2nnc(Cc3cccs3)o2)cc1C = 50

Form field - read-out: % Inhibition; system: Brugia malayi; submitted item: "COc1cc(C)ccc1S(=O)(=O)NCCCn1nc(-c2ccc(F)cc2)ccc1=O"
0

Moving on to CCOC(=O)c1sc(NC(=O)C2CCCN2S(C)(=O)=O)nc1-c1ccccc1 (stereo not given)
0

Moving on to "COc1ccc(-c2ccc(OCCNS(=O)(=O)c3ccc(Cl)s3)nn2)cc1"
0

Moving on to "CCN(C1CCCCC1)S(=O)(=O)c1ccc(C(=O)Nc2nnc(-c3ccc(F)cc3)o2)cc1"
0

Moving on to CCCCC1CCC(C(=O)NCCn2nc(-c3ccncc3)ccc2=O)CC1 (stereo not given)
0

###

# Tested on: Trypanosoma brucei brucei
# assay.remarks: WHO-TDR: Human African Trypanosomiasis (HAT)
# Type: functional, organism-based
# test.parameters: Squib-427
measurement.name: IC50 (µg/mL)
Write the value in µg/mL as a bare number.

Worked cases, answers included:
Cn1nccc1C(=O)Nc1nc2c(s1)CSc1ccccc1-2 = 0.315
CC(C)CC(=O)N1CCN(c2ccc(-c3ccccn3)nn2)CC1 = 3.09
O=C(Nc1ccc2c(c1)N(C(=O)C1CC1)CCC2)c1cccc(C(F)(F)F)c1 = 3.69

Reported IC50, molecule CN(CC1CCCO1)S(=O)(=O)c1ccc(C(=O)Nc2nc3cc4c(cc3s2)OCCO4)cc1 (stereo not given) : ____
3.69

Moving on to "Cc1ccc(C(=O)Nc2nnc(Cc3cccs3)o2)cc1C"
0.383

###

Entries and their IC50
# assay.remarks: WHO-TDR: Cytotoxicity
# Format: toxicity, cell-based
# test.parameters: human, MRC5 cells

O=C(CCS(=O)(=O)c1ccccc1)N(CCCN1CCOCC1)c1nc2ccccc2s1 = 2.88 µg/mL
CSc1nc(NC(C)C)c2cnn(CCNC(=O)C34CC5CC(CC(C5)C3)C4)c2n1 = > 12.9 µg/mL
O=S(=O)(Nc1nc2c(Cl)cccc2s1)c1ccc(Cl)cc1 = > 10.8 µg/mL
O=C(CCc1csc(NC(=O)c2cccs2)n1)Nc1nc2ccccc2s1 = > 12.4 µg/mL
CCNc1cc(C)nc(Nc2ccc(NC(=O)CC3CCCC3)cc2)n1 = 3.23 µg/mL
CCOc1ncccc1C(=O)N1CCN(c2ccc(-c3ccc(Cl)cc3)nn2)CC1 = > 12.7 µg/mL
Cc1nnc2ccc(-c3ccc(NS(=O)(=O)c4ccc5c(c4)CCCC5)cc3)nn12 = > 12.6 µg/mL
NC(=O)c1ccc(NC(=O)c2c[nH]c(=O)n(-c3ccc(F)cc3)c2=O)cc1 = > 11 µg/mL

Reported IC50, molecule "O=C(CSc1nnc(NC(=O)COc2ccc(Cl)cc2)s1)NCc1ccc2c(c1)OCO2" : ____
3.34 µg/mL

Moving on to COc1cccc(C2C(S(=O)(=O)c3ccc(C)cc3)=C(O)C(=O)N2c2ccc(C)cc2)c1 (stereo not drawn)
> 13.5 µg/mL

Moving on to "COc1cc(NCCNC(=O)C(C)C)nc(OC)n1"
> 8.05 µg/mL

###

# Test system: Leishmania infantum
# assay.remarks: WHO-TDR: Leishmaniasis
# Format: functional, organism-based, Mus musculus
# test.parameters: Macrophage
Entries and their IC50

Oc1ccc(Br)cc1/C=N/Nc1ncnc2[nH]cnc12 = 3.24 µg/mL

Reported IC50, compound "COC(=O)c1c(NC(=O)c2cc3ccccc3oc2=O)sc2c1CCN(Cc1ccccc1)C2" : ____
4.96 µg/mL

Moving on to "CCCN1C(=O)C(C)(C)COc2cc(NS(=O)(=O)c3c(C)c(C)cc(C)c3C)ccc21"
> 13.3 µg/mL

Moving on to CS(=O)(=O)N1CCCCC1C(=O)Nc1nc(-c2nc3ccccc3s2)cs1 (stereo unspecified)
> 12.7 µg/mL

Moving on to "Cc1ccc(NC(=O)c2oc3ccccc3c2NC(=O)CC(c2ccccc2)c2ccccc2)cc1C"
4.75 µg/mL

Moving on to "O=C(CCc1csc(NC(=O)c2ccco2)n1)Nc1ccc(Cl)cc1"
> 11.3 µg/mL

Moving on to "Cc1ccc(-c2cc(CC(=O)Nc3cccc(C)n3)no2)cc1"
> 9.22 µg/mL

Moving on to "O=C(CSC1=Nc2cccnc2Nc2ccccc21)Nc1ccc(F)c(F)c1"
> 11.9 µg/mL

Moving on to "COc1ccc(Cl)cc1NC(=O)CSc1nnc(NC(=O)Cc2ccc(F)cc2)s1"
2.73 µg/mL

###

# assay.remarks: WHO-TDR: Cytotoxicity
# Format: toxicity, cell-based
# test.parameters: human, MRC5 cells
measurement.name: IC50 (µg/mL)
Write the value in µg/mL as a bare number.

Worked cases, answers included:
CCc1ccc2nc(N(CCCn3ccnc3)C(=O)C3COc4ccccc4O3)sc2c1 (stereo unspecified) = 4.4
CC1CC(C)CN(S(=O)(=O)CCCOc2ccc3c(c2)OCO3)C1 (stereo unspecified) = 4.25
Cc1ccc(NC(=O)CSc2nncc(=O)[nH]2)cc1Cl = 2.55

Reported IC50, compound "Cc1ccc(-n2ccnc2N2CCN(C(=O)c3ccc4ccccc4c3)CC2)cc1" : ____
2.65

Moving on to "O=C(Nc1nc(-c2ccccn2)cs1)c1ccc2ncsc2c1"
3.63

Moving on to "O=S(=O)(NCCNc1ccc(Nc2ccccn2)nn1)c1ccccc1C(F)(F)F"
5.08

Moving on to "O=C(CSc1ccc2nnc(-c3ccncc3)n2n1)c1ccc(Cl)cc1"
4.28

Moving on to "Cc1ccc(S(=O)(=O)N2CCN(c3ccc(Nc4cccnc4)nn3)CC2)c(C)c1"
0.804

###

# Tested on: Plasmodium falciparum K1
# assay.remarks: WHO-TDR: Malaria
# Format: functional, organism-based, Homo sapiens
# test.parameters: Erythrocyte
Entries and their IC50

CCCc1cc(=O)[nH]c(-n2nc(C)cc2NC(=O)c2ccc(Br)o2)n1 = 0.703 µg/mL

Proceed to the following item.
Reported IC50, compound "Cc1cc(C(=O)Nc2nc(-c3ccc4c(c3)OCCO4)cs2)n(C)n1" : ____
> 10.7 µg/mL

###

# assay.remarks: WHO-TDR: Cytotoxicity
# Type: toxicity, cell-based
# test.parameters: human, MRC5 cells
measurement.name: IC50

COc1nn(C)cc1-c1nnc(SCC(=O)N2CCC(Cc3ccccc3)CC2)n1C = 5.88 µg/mL

Reported IC50, compound "Cc1cc(C)cc(NC(=O)NCCNc2ccc(Nc3ccccn3)nn2)c1" : ____
> 11.3 µg/mL

Moving on to "COc1ccc(Cl)cc1C(=O)NCCOc1ccc2nnc(-c3ccc(F)cc3)n2n1"
> 13.3 µg/mL

Moving on to "CCOCC(=O)Nc1ccc(-c2nnc(N(C)c3ccc(OC)cc3)s2)cc1"
> 12 µg/mL

Moving on to "O=C(CSc1ncc(CO)n1Cc1ccc(Cl)cc1)NCc1ccccc1Cl"
> 13.1 µg/mL

Moving on to "O=C(Cc1csc(NC(=O)c2ccc(=O)[nH]c2)n1)NCc1cccs1"
> 11.2 µg/mL

Moving on to "Cc1cc(C(=O)N(CCCN(C)C)c2nc3c(C)ccc(Cl)c3s2)no1"
5.07 µg/mL

Moving on to "O=C(CSC1=Nc2cccnc2Nc2ccccc21)Nc1ccc(F)c(F)c1"
> 11.9 µg/mL

Moving on to "CCOC(=O)c1ccccc1NC(=O)CSc1ncc(-c2ccccc2)[nH]1"
> 11.4 µg/mL

Moving on to "Cc1cccc(Nc2ccc(NCCNC(=O)Nc3ccc(F)cc3)nn2)n1"
> 11.4 µg/mL

###

# System: Trypanosoma cruzi
# assay.remarks: WHO-TDR: Chagas disease
# Assay type: functional, organism-based, Homo sapiens
# test.parameters: MRC5
measurement.name: IC50 (µg/mL)
Write the value in µg/mL as a bare number.

Worked cases, answers included:
CC(=O)Nc1ccc2nc(Nc3nc4ccc(C(C)C)cc4s3)sc2c1 = 2.37
CN(C)CCCN(C(=O)c1ccccc1F)c1nc2c(Cl)cccc2s1 = 4.41
Cc1n[nH]c(C)c1CCc1nc(-c2ccc(Cl)cc2)no1 = 1.8
CC(Sc1ccc2nnc(CCNC(=O)c3ccccc3)n2n1)c1ccccc1 (stereo unspecified) = 5.24

Proceed to the following item.
Form field - read-out: IC50; system: Trypanosoma cruzi; submitted item: Cc1nnc(NC(=O)COc2cccc3ccc(N4CCCC(C)C4)nc23)s1 (stereo unspecified)
0.407
